// provenance: patent US9353090B2

This section presents molecules with their documented Metabolic stability (Qh %), % hepatic blood flow values.
Assay: Human liver microsome (HLM) metabolic stability assay
Type: in vitro ADME
Details: human liver microsomes

// solved cases for Metabolic stability (Qh %), % hepatic blood flow follow
Cc1c(COc2ccccc2-c2cccc(N3CC[C@@]4(C(=O)O)C[C@H]4C3)n2)ccc2c1CCN(C(C)c1ccccn1)C2 (stereo partly drawn) : 61%
COC[C@H]1N(c2cccc(-c3cccc(C)c3OCc3cc4c(c(OC)c3)CN(C3CCOCC3)CC4)n2)C[C@@H]2C[C@@]21C(=O)O : <24%
Cc1ccc(OCc2ccc3c(c2)CCN(C2COC2)CC3)c(-c2csc(N3C[C@@H]4C[C@]4(C(=O)O)C3)n2)c1 : <24%
Cc1ccc(OCc2ccc3c(c2)CCN(C2COC2)C3)c(-c2cccc(N3CC[C@@]4(C(=O)O)C[C@H]4C3)n2)c1 : 33%

Return reported Metabolic stability (Qh %), % hepatic blood flow; argument: Cc1cccc(-c2csc(N3C[C@@H]4C[C@]4(C(=O)O)C3)n2)c1OCc1cc(C#N)c2c(c1)CCN(C1COC1)C2 <24%

Then this molecule: CO[C@@H]1CN(c2nc(-c3cccc(C)c3OCc3ccc4c(c3F)CCN(C3CCOCC3)CC4)cs2)CC[C@@H]1C(=O)O <24%
